I'd be grateful if you could share measured TGI for these entries.
# System: MCF7 breast
# assay details: NCI tumour cell line growth inhibition, 48 h

> print(dat)
                                   molecule  readout.type  value.observed
1  N=c1c2c(=S)n(-c3ccccc3)c(=S)n(-c3ccccc3)c2nc(SCCCN2CCCCC2)n1-c1ccccc1           TGI          1.3 µM
2  Cc1[nH]n(-c2ncc(C#N)c(=O)[nH]2)c(=O)c1CCO           TGI        > 100 µM
3  CC(=O)c1c(-c2ccc(Cl)cc2)c(C#N)c(=S)n(C2OC(CO)C(O)C(O)C2O)c1-c1ccccc1 (centres undefined)           TGI        > 100 µM

Now consider a different molecule.
Exam item: Given the entry CC(=O)OCC1OC(n2c(C)c(C(C)=O)c(-c3ccc(Cl)cc3)c(C#N)c2=S)C(OC(C)=O)C(OC(C)=O)C1OC(C)=O (centres undefined) , report its measured TGI.
Marked response: > 100 µM

###

# Tested on: NCI-H226 lung
# assay details: NCI tumour cell line growth inhibition, 48 h
readout type: GI50

> print(dat)
                                compound  value.observed
1  CCOC(=O)c1cnc2c(C)cc(C)cc2c1NCCCN(C)C         4.12 µM

# batch: return GI50 for each of the 2 compounds below
1. COc1ccc(OC)c(N(CCN2C(=O)c3ccccc3C2=O)C(=O)CCl)c1
2. Cn1ccnc1C(=O)/C=C/c1ccc(C(=O)Nc2ccc(F)cc2)cc1

Marked response:
1. 30.9 µM
2. 1.51 µM

Answer for every listed entry: what is its GI50? The entries follow.
1. N#Cc1cc2c(cc1Cl)SC(=Nc1ccccc1)N(S(=O)(=O)c1ccc(Cl)cc1)S2(=O)=O
2. Cc1ccc(Cl)cc1Nc1nc(C(F)(F)F)ccc1C(N)=O
3. COc1cc(O)c2c3c(ccnc13)-c1ccccc1N2
4. CCn1cc(C2NC(=O)c3ccccc3N2)c2cccc(C)c21 (configuration not stated)

Marked response:
1: 17.7 µM; 2: 1.45 µM; 3: 18.6 µM; 4: 0.572 µM

###

# Tested on: HOP-92 NSCLC
# assay details: NCI tumour cell line growth inhibition, 48 h
Exercise: for every item that follows, state its recorded TGI.
Answers are plain numbers, in µM.

Illustrative cases are given below, each with its answer.
compound	TGI [µM]
CC(C)(O)C1CC[C@]2(C)CC[C@]3(C)[C@H](CC[C@@H]4[C@@]5(C)CC[C@H](O)C(C)(C)[C@@H]5CC[C@]43C)[C@@H]12 (some centres undefined)	44.1
Cc1cc(Cl)ccc1Nc1nc(C(F)(F)F)ccc1C(=O)N/N=C/c1cccc(O)c1	13.9
O=C1C(C(Nc2ccccc2)c2ccccc2)=C([O-])c2ccccc21.O=C1C(C(Nc2ccccc2)c2ccccc2)=C([O-])c2ccccc21.[Ni+2] (centres undefined)	55.6

Next compound, TGI to be filled in.
Exam item: TGI for Cc1ccc2c(c1)C(=O)C(c1c(-c3[nH]c(=O)c4ccc(C)cc4c3O)c(O)c3ccccc3c1O)=NC2=O ?
Marked response: 5.1

###

Provide the recorded TGI for the entries that follow.
# Tested on: OVCAR-8 ovarian
# assay details: NCI tumour cell line growth inhibition, 48 h

> print(dat)
                                   molecule  value.observed
1  [N-]=[N+]=NCC1OCC(O)C(OCc2ccccc2)C1OCc1ccccc1 (stereo unspecified)        > 100 µM
2  COc1ccc(C(=O)N2N=C(c3ccc(Br)cc3)CC2c2cn(-c3ccccc3)nc2-c2ccccc2)cc1 (stereo unspecified)         > 50 µM
3  CN1CCN(CCOc2ccc(-c3cnc4c(-c5cccc(F)c5F)cnn4c3)cc2)CC1         5.26 µM

Below are 7 molecules. Give each one its TGI.
1. O=c1cccccc1NCCCCCCCCNc1cccccc1=O
2. CCOC(=O)C(C(C)=O)C1CC=CC1 (stereo unspecified)
3. CC(=O)Oc1ccc2c3c1[C@H]1O[C@H]1c1cccc(c1-3)[C@@H]1O[C@H]21
4. CCN(CC)c1ccc(/C=C/C2=NN(c3cccc(S(=O)(=O)O)c3)C3(C2)SCC(=O)N3c2nc3ccccc3s2)cc1 (stereo unspecified)
5. CSc1ccc(NC(=O)C2CCCCC2C(=O)O)cc1 (stereo unspecified)
6. COc1cc([C@@H]2c3cc4c(cc3[C@@H](NC(=O)c3cccc(C#N)c3)C3COC(=O)[C@@H]32)OCO4)cc(OC)c1O (stereo partly specified)
7. C[n+]1c2ccccc2c2/c(=C\C#N)c3ccccc3n21

Marked response:
1. > 100 µM
2. > 100 µM
3. 9.88 µM
4. > 100 µM
5. > 100 µM
6. 14.6 µM
7. 15.9 µM

Provide each entry's TGI from the list below.
1. COc1ccc(NC(=O)CSc2nnc(-c3ccc(N=Cc4ccc(Cl)cc4)cc3)o2)cc1
2. O=C1/C(=C\c2cccc(Oc3ccccc3)c2)S(=O)(=O)C(c2ccccc2)N1c1cc(Cl)ccc1Cl (stereo unspecified)
3. CN(C)CCN(C)CCC(=O)/C=C/c1ccccc1
4. CC(=O)COC(=O)CC(C)=O
5. COC(=O)c1ccc2[nH]c(O)c(C(=Nc3ccc(N(C)C(=O)CN4CCN(C)CC4)cc3)c3cccc(OC)c3)c2c1
6. COc1ccc2nc3n[nH]c(N)c3nc2c1
7. O=C(NCCCCN(CCCNC(=O)C(F)(F)F)Cc1ccccc1)C(F)(F)F

Marked response:
1. > 100 µM
2. 32.7 µM
3. 47.1 µM
4. > 100 µM
5. 9.91 µM
6. 32.5 µM
7. > 100 µM
